- System: Plasmodium falciparum
- Test Details: Antiplasmodial activity against erythrocytic stages of chloroquine-resistant Plasmodium falciparum FcB1/Columbia incubated for 24 hrs followed by [3H]-hypoxanthine addition measured after 24 hrs by liquid scintillation spectrometry
- Assay type: functional, organism-based
Endpoint Name: IC50

| Test Smiles | Endpoint Name | Reported Measurement |
| --- | --- | --- |
| COc1ccc(-c2cc3c(OC(=O)c4ccc(Cl)cc4)cccc3o2)cc1 | IC50 | > 25 µM |
| COc1ccc(C(=O)c2c(C3CC3)oc3cccc(O)c23)cc1 | IC50 | > 50 µM |
| O=C(Oc1cccc2oc(C3CC3)cc12)c1ccccc1 | IC50 | > 50 µM |
| COc1ccc(C(=O)c2c(-c3ccc(OC)cc3)oc3cccc(OC)c23)cc1 | IC50 | > 25 µM |
| COc1ccc(C(=O)Oc2cccc3oc(-c4ccc(OC)cc4)cc23)cc1 | IC50 | 11.2 µM |
| COc1ccc(-c2oc3cccc(OC)c3c2C(=O)c2ccc(OC(=O)C(C)(C)C)c(OC)c2)cc1 | IC50 | > 50 µM |
| COc1ccc(-c2oc3cccc(OC)c3c2C(=O)c2cccc3ccccc23)cc1 | IC50 | > 50 µM |
| O=C(Oc1cccc2oc(-c3ccccc3)cc12)c1cccc2ccccc12 | IC50 | > 25 µM |
| COc1ccc(-c2oc3ccccc3c2C(=O)c2c(O)cc(OC)cc2OC)cc1 | IC50 | > 25 µM |
| O=C(c1ccc([N+](=O)[O-])cc1)c1c(-c2ccccc2)oc2ccccc12 | IC50 | > 50 µM |
| COc1ccc(-c2cc3c(OC(=O)c4ccccc4)cccc3o2)cc1 | IC50 | > 25 µM |
| COc1ccc(C(=O)Oc2cccc3oc(C4CC4)cc23)cc1 | IC50 | > 50 µM |
| COc1ccc(-c2oc3cccc(O)c3c2C(=O)c2ccccc2)cc1 | IC50 | > 25 µM |
| CCOc1ccc2ccccc2c1C(=O)c1c(C2CC2)oc2cccc(O)c12 | IC50 | > 25 µM |
| O=C(Oc1cccc2oc(-c3ccccc3)cc12)c1ccc(Cl)cc1 | IC50 | > 25 µM |
| O=C(c1ccccc1)c1c(C2CC2)oc2ccccc12 | IC50 | > 50 µM |
| COc1ccc(-c2cc3c(OC(=O)c4cccc5ccccc45)cccc3o2)cc1 | IC50 | > 50 µM |
| CCOc1ccc2ccccc2c1C(=O)c1c(-c2ccc(OC)cc2)oc2cccc(O)c12 | IC50 | > 25 µM |
| O=C(c1cccc2ccccc12)c1c(C2CC2)oc2cccc(O)c12 | IC50 | > 50 µM |
| COc1ccc(-c2cc3c(OC(=O)c4ccc([N+](=O)[O-])cc4)cccc3o2)cc1 | IC50 | > 50 µM |
| CCOc1ccc2ccccc2c1C(=O)Oc1cccc2oc(-c3ccc(OC)cc3)cc12 | IC50 | > 50 µM |
| O=C(Oc1cccc2oc(C3CC3)cc12)c1ccc(Cl)cc1 | IC50 | > 50 µM |

---

- Tested on: Plasmodium falciparum
- Test Details: Antiplasmodial activity against erythrocytic stages of chloroquine-resistant Plasmodium falciparum FcB1/Columbia incubated for 24 hrs followed by [3H]-hypoxanthine addition measured after 24 hrs by liquid scintillation spectrometry
- Type: functional, organism-based
pIC50: −log10 of the molar value.

| Test Smiles | pIC50 |
| --- | --- |
| COc1ccc(-c2oc3cccc(OC)c3c2C(=O)c2c(OC)cc(OC)cc2OC)cc1 | < 4.30 |
| CCOc1ccc2ccccc2c1C(=O)Oc1cccc2oc(-c3ccccc3)cc12 | < 4.30 |
| COc1ccc(-c2oc3ccccc3c2C(=O)c2ccccc2)cc1 | < 4.30 |
| COc1ccc(-c2cc3c(OC(=O)c4c(O)cc(OC)cc4OC)cccc3o2)cc1 | 5.10 |
| CCOc1ccc2ccccc2c1C(=O)Oc1cccc2oc(C3CC3)cc12 | < 4.60 |
| COc1ccc(-c2oc3cccc(OC)c3c2C(=O)c2ccccc2)cc1 | < 4.30 |
| O=C(Oc1cccc2oc(C3CC3)cc12)c1cccc2ccccc12 | < 4.30 |

---

# pIC50 listing for each entry below
- Test system: Plasmodium falciparum
- Test Details: Antiplasmodial activity against erythrocytic stages of chloroquine-resistant Plasmodium falciparum FcB1/Columbia incubated for 24 hrs followed by [3H]-hypoxanthine addition measured after 24 hrs by liquid scintillation spectrometry
- Type: functional, organism-based
pIC50: −log10 of the molar value.
Endpoint Name: pIC50

| Test Smiles | Target Desc | Reported Measurement |
| --- | --- | --- |
| O=C(Oc1cccc2oc(-c3ccccc3)cc12)c1ccccc1 | Plasmodium falciparum | < 4.60 |
| COc1ccc(-c2oc3ccccc3c2C(=O)c2ccc([N+](=O)[O-])cc2)cc1 | Plasmodium falciparum | < 4.30 |
| O=C(Oc1cccc2oc(-c3ccccc3)cc12)c1ccc([N+](=O)[O-])cc1 | Plasmodium falciparum | < 4.60 |
| COc1ccc(-c2oc3cccc(O)c3c2C(=O)c2cccc3ccccc23)cc1 | Plasmodium falciparum | < 4.30 |
| COc1ccc(-c2oc3cccc(OC)c3c2C(=O)c2ccc(Cl)cc2)cc1 | Plasmodium falciparum | < 4.30 |
| COc1ccc(C(=O)c2c(-c3ccc(OC)cc3)oc3cccc(O)c23)cc1 | Plasmodium falciparum | < 4.60 |
| COc1ccc(C(=O)Oc2cccc3oc(-c4ccccc4)cc23)cc1 | Plasmodium falciparum | < 4.60 |
| O=C(c1ccccc1)c1c(-c2ccccc2)oc2ccccc12 | Plasmodium falciparum | < 4.30 |
| O=C(Oc1cccc2oc(C3CC3)cc12)c1ccc([N+](=O)[O-])cc1 | Plasmodium falciparum | < 4.30 |
| Cc1cc(C)cc(-c2cc3c(OC(=O)c4ccccc4)cccc3o2)c1 | Plasmodium falciparum | 5.22 |
